Where do the numbers come from? From paper PMC4260628.

SYSTEM TESTED: TxtE (Streptomyces scabiei, UniProt C9ZDC6)
TEST NAME: biochemical
Assay type: binding, Streptomyces scabies
PROPERTY: Kd (µM)
Give a bare numeral; the unit µM is implied.

Report Kd for N[C@@H](Cc1c[nH]c2ccccc12)C(=O)O [Substrate 1, L-tryptophan] 39
